target: T1, human PD-1 extracellular domain fused with human Fc tag (hPD-1-hFc) (human); test: ELISA binding (summary table)
T1 construct: also called human PD-1-hFc
T1 sequence (chain, as listed by the source limits assumed): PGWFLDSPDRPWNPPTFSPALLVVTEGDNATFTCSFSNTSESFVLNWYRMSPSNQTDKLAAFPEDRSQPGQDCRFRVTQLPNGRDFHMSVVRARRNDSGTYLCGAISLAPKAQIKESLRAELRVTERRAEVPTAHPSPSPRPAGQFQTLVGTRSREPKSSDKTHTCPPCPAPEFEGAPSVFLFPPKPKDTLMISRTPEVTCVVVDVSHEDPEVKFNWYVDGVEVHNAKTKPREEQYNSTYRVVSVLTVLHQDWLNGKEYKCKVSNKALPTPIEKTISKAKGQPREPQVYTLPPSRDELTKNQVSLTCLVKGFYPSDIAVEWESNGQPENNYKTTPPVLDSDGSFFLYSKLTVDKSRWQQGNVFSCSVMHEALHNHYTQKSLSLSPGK
Parameter measured: EC50 (µg/mL)
The answer is to be given in µg/mL; state only the numeric part.

binder="22A5 murine anti-PD-1 antibody (antibody, V domains shown, Purified hybridoma antibody; also called 22A5-mIgG1) VH: EVKLVESGGGLVKPGGSLKLSCSASGFSFSYYDMSWVRQTPEKGLEWVATISGGGRNTYFIDSVKGRFTISRDNVKNNLYLLMSSLRSEDTALYYCASPYEGAVDFWGQGTSVTVSS VL: DIVMTQSHKVMSTSVGDRVSITCKASQDVDNAVAWYQQNPGQSPKLLIKWASTRHHGVPDRFTGSGSGTDFTLTISTVQSEDLADFFCQQYSTFPYTFGGGTKLEIKR" parameter_measured=EC50 numeric_result=0.0194
binder="13F1 murine anti-PD-1 antibody (antibody, V domains shown, Purified hybridoma antibody; also called 13F1-mIgG1) VH: DVQLQESGPGLVKPSQSLSLTCTVTGYSITSDYAWNWIRQFPGNQLEWMAYISYSGYTSYNPSLKSRISITRDTSKNQFFLQLNSVTTEDTATYYCARSLDYDYGTMDYWGQGTSVTVSS VL: QIVLSQSPAILSASPGEKVTMTCRANSSVSSMHWYQQKPGSSPEPWIYAISNLAFGVPTRFSGSGSGTSYSLTISRVEAEDAATYFCQQWSSRPPTFGGGTKLEIKR" parameter_measured=EC50 numeric_result=0.0173

Attention now shifts to the item below.
Item: 6E1 murine anti-PD-1 antibody (antibody, V domains shown, Purified hybridoma antibody; also called 6E1-mIgG1) VH: EVKLVESGGGLVKPGGSLKLSCAASGFTFSSYGMSWVRQTPEKRLEWVATISGGGRDTYYLDSVKGRFTISRDNAKNNLYLQMSSLRSEDTALYYCVRQYYDDWFAYWGQGTLVSNSA VL: DIVLTQTPATLSVTPGDSVSLSCRASQSLSNNLHWYQQKSHESPRLLIKYASQSISGIPSRFSGSGSGTDFTLSINSVETEDFGMYFCQQSNSWPLTFGAGTKLEMKR | EC50: 0.0157
